Ref: patent US8178571B2

System: alpha2B adrenergic receptor (Homo sapiens, UniProt P18089)
Construct: expressed in transfected cells; host or cells: NIH-3T3 cells
Sequence (P18089 1-450): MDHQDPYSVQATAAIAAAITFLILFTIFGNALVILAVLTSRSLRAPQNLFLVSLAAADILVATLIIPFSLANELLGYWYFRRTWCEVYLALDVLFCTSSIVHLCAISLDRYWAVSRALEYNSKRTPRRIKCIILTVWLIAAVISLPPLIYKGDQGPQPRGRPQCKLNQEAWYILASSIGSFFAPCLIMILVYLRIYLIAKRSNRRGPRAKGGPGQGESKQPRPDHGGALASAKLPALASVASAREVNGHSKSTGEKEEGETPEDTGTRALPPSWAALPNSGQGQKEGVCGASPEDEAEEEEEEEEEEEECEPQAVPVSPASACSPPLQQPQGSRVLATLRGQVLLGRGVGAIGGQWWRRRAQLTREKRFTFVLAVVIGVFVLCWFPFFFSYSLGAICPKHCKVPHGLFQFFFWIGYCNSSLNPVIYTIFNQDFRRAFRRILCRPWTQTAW
Protocol text: Receptor Selection and Amplification Technology (RSAT) assay, alpha2B
Format: cell-based
Condition notes: RSAT, NIH-3T3 cells; ratio of maximal effect to that of standard full agonist brimonidine (UK14304); NA = not active at concentrations less than 10 micromolar
Label Fulfilled when Intrinsic Activity Alpha 2B < 1; otherwise Not fulfilled.

Problem: Intrinsic Activity Alpha 2B strictly < 1 for this compound? Fc1c(Cl)cccc1Cc1c[nH]c(=S)[nH]1 [Compound 2]
Solution: Not fulfilled

Problem: Intrinsic Activity Alpha 2B strictly < 1 for this compound? Fc1ccccc1Cc1c[nH]c(=S)[nH]1 [Compound 3]
Solution: Not fulfilled

Problem: Intrinsic Activity Alpha 2B strictly < 1 for this compound? S=c1[nH]cc(Cc2ccc(Cl)cc2Cl)[nH]1 [Compound 5]
Solution: Fulfilled

Problem: Intrinsic Activity Alpha 2B strictly < 1 for this compound? S=c1[nH]cc(Cc2c(Cl)cccc2Cl)[nH]1 [Compound 1]
Solution: Not fulfilled

Problem: Intrinsic Activity Alpha 2B strictly < 1 for this compound? N#Cc1ccc(-c2ccccc2Cc2c[nH]c(=S)[nH]2)cc1 [Compound 6]
Solution: Fulfilled

Problem: Intrinsic Activity Alpha 2B strictly < 1 for this compound? Fc1ccc(Cc2c[nH]c(=S)[nH]2)cc1 [Compound 4]
Solution: Fulfilled
